Listed here are compounds together with their documented IC50.
test system: NCI-H1975; experiment: Cytotoxicity against human NCI-H1975 cells after 4 days by MTS/cell proliferation assay; format: functional, cell-based; settings: NCI-H1975, 96 h
The figure you give is taken to be in nM; do not add the unit.

Consider the following illustrative entries.
item_smiles: CC(=O)O[C@@H](C)/C=C\C(=O)N[C@@H]1C[C@H](C)[C@H](C/C=C(C)/C=C/[C@@H]2C[C@]3(CO3)C[C@@H](CC(=O)O)O2)O[C@@H]1C
readout_type: IC50
measured_number: 3.6

item_smiles: C=C1C[C@@H](CC(=O)O)O[C@H](/C=C/C(C)=C/C[C@@H]2O[C@H](C)[C@H](NC(=O)/C=C\[C@H](C)OC(C)=O)C[C@@H]2C)C1
readout_type: IC50
measured_number: 30

item_smiles: CCCNC(=O)C[C@@H]1C[C@@]2(CO2)C[C@@H](/C=C/C(C)=C/C[C@@H]2O[C@H](C)[C@H](NC(=O)/C=C\[C@H](C)OC(C)=O)C[C@@H]2C)O1
readout_type: IC50
measured_number: 2.4

Q: Entry "CCCNC(=O)C[C@@H]1C[C@@]2(CO2)[C@H](O)[C@@H](/C=C/C(C)=C/C[C@@H]2O[C@H](C)[C@H](NC(=O)/C=C\[C@H](C)OC(C)=O)C[C@@H]2C)O1" : reported IC50 = ?
A: 0.28

Q: Also "C=C1C[C@@H](CC(=O)O)O[C@H](/C=C/C(C)=C/C[C@@H]2O[C@H](C)[C@H](NC(=O)/C=C\[C@H](C)OC(C)=O)C[C@@H]2C)[C@H]1O" , if possible.
A: 950

---

system: NCI-H1975; assay: Cytotoxicity against human NCI-H1975 cells after 4 days by MTS/cell proliferation assay; assay type: functional, cell-based; conditions: NCI-H1975, 96 h
readout_type: IC50 (nM)
The figure you give is taken to be in nM; do not add the unit.

compound: CC(=O)O[C@H]1C(=O)[C@@]2(C)[C@H]([C@H](OC(=O)c3ccccc3)[C@]3(O)C[C@H](OC(=O)[C@H](O)[C@@H](NC(=O)c4ccccc4)c4ccccc4)C(C)=C1C3(C)C)[C@]1(OC(C)=O)CO[C@@H]1C[C@@H]2O [PACLITAXEL]
display_unit: nM
IC50: 7.94

Attention now shifts to the item below.
Q: Entry CC(=O)O[C@@H](C)/C=C\C(=O)N[C@@H]1C[C@H](C)[C@H](C/C=C(C)/C=C/[C@H]2O[C@H](CC(=O)O)C[C@@]3(CO3)[C@@H]2O)O[C@@H]1C [THAILANSTATIN A] : reported IC50 = ?
A: 320
